From: ChEMBL document CHEMBL3864157

# Tested on: Staphylococcus aureus
# assay: Antibacterial activity against erythromycin-resistant Staphylococcus aureus NRS-70
# Format: functional
assay_endpoint: MIC

Below are 3 molecules. Give each one its MIC.
1. C#CCON=C(c1ccccc1)c1cc2c(cc1C(C)C)CC[C@H]1[C@](C)(C(=O)O)CCC[C@]21C
2. CON=C(c1cccc(C(F)(F)F)c1)c1cc2c(cc1C(C)C)CC[C@H]1[C@](C)(C(=O)O)CCC[C@]21C
3. CON=C(c1ccc(Cl)cc1Cl)c1cc2c(cc1C(C)C)CC[C@H]1[C@](C)(C(=O)O)CCC[C@]21C

stdout:
["1.56 to 2.5 µg/mL", "> 25 µg/mL", "1.56 to 3.13 µg/mL"]
